Test system: KRAS-mutant PDC complex spheroid viability
Test: Anticancer human tumor 186277-243-T-J2-PDC patient-derived colon adenocarcinoma cell line growth inhibition [KRAS2]
Settings: curve of first compound; second compound 10 µM
OBSERVED PROPERTY: IC50

Before answering, review these 7 worked examples.
1) CN(C)C/C=C/C(=O)Nc1cc2c(Nc3ccc(F)c(Cl)c3)ncnc2cc1O[C@H]1CCOC1 + COc1cc2nc(C)nc(NC(C)c3cc(N)cc(C(F)(F)F)c3)c2cc1OC1CCOC1    > 0.1 µM
2) CC(=O)Nc1cccc(-n2c(=O)n(C3CC3)c(=O)c3c(Nc4ccc(I)cc4F)n(C)c(=O)c(C)c32)c1 + COc1cc2nc(C)nc(NC(C)c3cc(N)cc(C(F)(F)F)c3)c2cc1OC1CCOC1    < 0.0001 µM
3) O=C(c1cc(Cc2n[nH]c(=O)c3ccccc23)ccc1F)N1CCN(C(=O)C2CC2)CC1 + CC1OCC2(CCN(c3cnc(Sc4ccnc(N)c4Cl)c(N)n3)CC2)C1N    0.614 µM
4) CCNC(=O)CC1N=C(c2ccc(Cl)cc2)c2cc(OC)ccc2-n2c(C)nnc21 (stereo not drawn) + CNCc1ccccc1-c1csc(C(C)Nc2nc(C)nc3cc(OC)c(OC)cc23)c1    < 0.0316 µM
5) O=C(c1cc(Cc2n[nH]c(=O)c3ccccc23)ccc1F)N1CCN(C(=O)C2CC2)CC1 + CNCc1ccccc1-c1csc(C(C)Nc2nc(C)nc3cc(OC)c(OC)cc23)c1    < 0.0316 µM
6) CC(C)n1nc(-c2ccc3oc(N)nc3c2)c2c(N)ncnc21 + CC1OCC2(CCN(c3cnc(Sc4ccnc(N)c4Cl)c(N)n3)CC2)C1N    0.00126 µM
7) CC1(C)CCC(CN2CCN(c3ccc(C(=O)NS(=O)(=O)c4ccc(NCC5CCOCC5)c([N+](=O)[O-])c4)c(Oc4cnc5[nH]ccc5c4)c3)CC2)=C(c2ccc(Cl)cc2)C1 + CNCc1ccccc1-c1csc(C(C)Nc2nc(C)nc3cc(OC)c(OC)cc23)c1    < 0.0316 µM

Next compound, please.
Entry CN(C)C/C=C/C(=O)Nc1cc2c(Nc3ccc(F)c(Cl)c3)ncnc2cc1O[C@H]1CCOC1 + CNCc1ccccc1-c1csc(C(C)Nc2nc(C)nc3cc(OC)c(OC)cc23)c1 ; IC50 = < 0.000316 µM
